// reported total FIC50 per item
system: Mycobacterium tuberculosis Erdman (autoluminescent); experiment: total FIC50 (Loewe) at 50% inhibition, three-drug combination (log2); higher = more antagonistic; conditions: in vitro model: butyrate; time point: constant (~7 days, model-specific)
assayMetric: total FIC50

{"compound": "CC(C)/N=c1\\cc2n(-c3ccc(Cl)cc3)c3ccccc3nc-2cc1Nc1ccc(Cl)cc1 [clofazimine] + CC(=O)NC[C@H]1CN(c2ccc(N3CCOCC3)c(F)c2)C(=O)O1 [linezolid] + CO[C@H]1/C=C/O[C@@]2(C)Oc3c(C)c(O)c4c(O)c(c(/C=N/N5CCN(C6CCCC6)CC5)c(O)c4c3C2=O)NC(=O)/C(C)=C\\C=C\\[C@H](C)[C@H](O)[C@@H](C)[C@@H](O)[C@@H](C)[C@H](OC(C)=O)[C@@H]1C [rifapentine]", "result": 0.328}
{"compound": "CC(C)/N=c1\\cc2n(-c3ccc(Cl)cc3)c3ccccc3nc-2cc1Nc1ccc(Cl)cc1 [clofazimine] + COc1c(N2C[C@@H]3CCCN[C@@H]3C2)c(F)cc2c(=O)c(C(=O)O)cn(C3CC3)c12 [moxifloxacin] + CO[C@H]1/C=C/O[C@@]2(C)Oc3c(C)c(O)c4c(O)c(c(/C=N/N5CCN(C6CCCC6)CC5)c(O)c4c3C2=O)NC(=O)/C(C)=C\\C=C\\[C@H](C)[C@H](O)[C@@H](C)[C@@H](O)[C@@H](C)[C@H](OC(C)=O)[C@@H]1C [rifapentine]", "result": 0.683}
{"compound": "CC[C@@H](CO)NCCN[C@@H](CC)CO [ethambutol] + COc1c(N2C[C@@H]3CCCN[C@@H]3C2)c(F)cc2c(=O)c(C(=O)O)cn(C3CC3)c12 [moxifloxacin] + NC(=O)c1cnccn1 [pyrazinamide]", "result": 0.345}

----------
tested on: Mycobacterium tuberculosis Erdman (autoluminescent); experiment: GRinf, maximum normalised growth rate inhibition (three-drug combination) (unitless (-1 to 1)); higher = less effect (negative = killing); conditions: in vitro model: dormancy (butyrate + nitrate, low O2); time point: terminal (~4-5 doublings, model-specific)

{"compound": "CC(C)/N=c1\\cc2n(-c3ccc(Cl)cc3)c3ccccc3nc-2cc1Nc1ccc(Cl)cc1 [clofazimine] + NNC(=O)c1ccncc1 [isoniazid] + COc1c(N2C[C@@H]3CCCN[C@@H]3C2)c(F)cc2c(=O)c(C(=O)O)cn(C3CC3)c12 [moxifloxacin]", "GRinf": -0.177}
{"compound": "COc1nc2ccc(Br)cc2cc1[C@@H](c1ccccc1)[C@@](O)(CCN(C)C)c1cccc2ccccc12 [bedaquiline] + CC[C@@H](CO)NCCN[C@@H](CC)CO [ethambutol] + NNC(=O)c1ccncc1 [isoniazid]", "GRinf": -0.0322}
{"compound": "CC(=O)NC[C@H]1CN(c2ccc(N3CCOCC3)c(F)c2)C(=O)O1 [linezolid] + COc1c(N2C[C@@H]3CCCN[C@@H]3C2)c(F)cc2c(=O)c(C(=O)O)cn(C3CC3)c12 [moxifloxacin] + CO[C@H]1/C=C/O[C@@]2(C)Oc3c(C)c(O)c4c(O)c(c(/C=N/N5CCN(C)CC5)c(O)c4c3C2=O)NC(=O)/C(C)=C\\C=C\\[C@H](C)[C@H](O)[C@@H](C)[C@@H](O)[C@@H](C)[C@H](OC(C)=O)[C@@H]1C [rifampicin]", "GRinf": -0.0219}
